Data origin, for the record: patent US20260098080A1

Recorded Relative potency, lectin pathway, human serum by entry
Target: human MASP-2 (in normal human serum) (human, UniProt O00187 16-686)
Sequence (O00187 16-686 limits assumed): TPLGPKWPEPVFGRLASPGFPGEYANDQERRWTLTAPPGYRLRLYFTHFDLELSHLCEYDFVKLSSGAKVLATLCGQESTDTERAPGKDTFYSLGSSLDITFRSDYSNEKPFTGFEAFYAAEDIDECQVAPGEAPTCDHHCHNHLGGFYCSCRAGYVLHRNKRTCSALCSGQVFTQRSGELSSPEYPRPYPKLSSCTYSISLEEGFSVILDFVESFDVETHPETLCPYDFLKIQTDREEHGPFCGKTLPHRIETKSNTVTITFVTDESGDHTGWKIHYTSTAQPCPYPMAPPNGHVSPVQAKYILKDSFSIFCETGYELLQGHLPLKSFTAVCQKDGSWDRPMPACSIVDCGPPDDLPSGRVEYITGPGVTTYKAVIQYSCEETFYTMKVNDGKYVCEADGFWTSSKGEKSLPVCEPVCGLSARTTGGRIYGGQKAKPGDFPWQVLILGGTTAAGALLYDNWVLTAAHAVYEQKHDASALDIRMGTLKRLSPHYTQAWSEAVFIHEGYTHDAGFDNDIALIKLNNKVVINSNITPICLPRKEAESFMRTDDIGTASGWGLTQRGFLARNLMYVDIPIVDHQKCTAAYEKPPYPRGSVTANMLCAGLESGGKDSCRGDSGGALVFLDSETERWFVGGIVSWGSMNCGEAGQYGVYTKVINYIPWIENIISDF
Assay: cell-based or functional assay
Where no end group is shown, it is not given here.
Parameter measured: Relative potency, lectin pathway, human serum (fold vs EVO2)

[
  {
    "Binder": "EVO211a (designed binder) KPDFCFLEEDPGWCRALKRRYFYNNQTKQCERFGYGGCFGNMNNFVTLEECKNICEDG",
    "Value unit": "fold vs EVO2",
    "Data value": 15.2
  },
  {
    "Binder": "EVO224 (designed binder, not fully specified; cysteine pairing not given here, Modified TFPI-D2 Kunitz domain; made as m1) KPDFCFLENDPGVCRALAVRYFYNNQTKQCERFYYGGCLGNMNNFVTLEECKNICEDG",
    "Value unit": "fold vs EVO2",
    "Data value": 4.5
  },
  {
    "Binder": "EVO23a (designed binder) KPDFCFLEEDPGPCRALKRRYFYNNQTKQCERFYYGGCFGNMNNFVTLEECKNICEDG",
    "Value unit": "fold vs EVO2",
    "Data value": 43
  },
  {
    "Binder": "EVO214a (designed binder) KPDFCFLEEDPGPCRALKLRYFYNNQTKQCERFGYGGCFGNMNNFVTLEECKNICEDG",
    "Value unit": "fold vs EVO2",
    "Data value": 13.6
  }
]
